System: M19-MEL melanoma
Test: NCI tumour cell line growth inhibition, 48 h

[
  {
    "COMPOUND": "N#CC(C(=O)CCC(=O)C(C#N)c1ccccc1)c1ccccc1 (stereo not given)",
    "TGT": "M19-MEL melanoma",
    "TGI": "> 100 µM"
  },
  {
    "COMPOUND": "NC(=O)C(N)=O",
    "TGT": "M19-MEL melanoma",
    "TGI": "> 100 µM"
  },
  {
    "COMPOUND": "CCC1(c2c(F)c(F)c(N)c(F)c2F)CCC(=O)NC1=O (stereo not given)",
    "TGT": "M19-MEL melanoma",
    "TGI": "> 100 µM"
  },
  {
    "COMPOUND": "CCN=C(NNc1ccc([N+](=O)[O-])cc1)P(=O)(OC(C)C)OC(C)C",
    "TGT": "M19-MEL melanoma",
    "TGI": "> 100 µM"
  },
  {
    "COMPOUND": "CC(=O)OC(C)C1C2=C(C(=O)CC1(C)O)C(=O)c1c(ccc(-c3ccc4c(c3O)C(=O)C3=C(C4=O)C(C(C)OC(C)=O)C(C)(O)CC3=O)c1O)C2=O (stereo not given)",
    "TGT": "M19-MEL melanoma",
    "TGI": "2.7 µM"
  },
  {
    "COMPOUND": "CSc1nc(Cl)c(Br)c(Sc2nc(N)nc3nc[nH]c23)n1",
    "TGT": "M19-MEL melanoma",
    "TGI": "23.4 µM"
  },
  {
    "COMPOUND": "Clc1cc(Cc2cc(Cl)c(Cl)c3c2OCOC3)c2c(c1Cl)COCO2",
    "TGT": "M19-MEL melanoma",
    "TGI": "> 100 µM"
  },
  {
    "COMPOUND": "N#Cc1c(NN)nc(NN)c(C#N)c1-c1ccccc1",
    "TGT": "M19-MEL melanoma",
    "TGI": "> 100 µM"
  },
  {
    "COMPOUND": "O=C1NC(=O)C2C(=O)NC(=O)C1C2(c1ccccc1)c1cc[nH]c1 (stereo not given)",
    "TGT": "M19-MEL melanoma",
    "TGI": "> 100 µM"
  },
  {
    "COMPOUND": "CC(=O)[CH-]C(=O)c1ccccc1.CC(=O)[CH-]C(=O)c1ccccc1.CC1(C)C2CCC1(C)C([O-])C2.CC1(C)C2CCC1(C)C([O-])C2.[Ti+4]",
    "TGT": "M19-MEL melanoma",
    "TGI": "> 100 µM"
  }
]

* * *

System: IGROV1 ovarian
Experiment: NCI tumour cell line growth inhibition, 48 h
Overview of recorded GI50 for various molecules

[
  {
    "MOLECULE": "COC(=O)c1c2c(c(C)[n+]([O-])c1C)C(=O)C=C(NCc1ccc(F)c(Cl)c1)C2=O",
    "GI50": "0.421 µM"
  },
  {
    "MOLECULE": "Cc1c(-c2c(-c3ccc(F)o3)sc3ncnc(O[C@H](Cc4ccccc4OCc4ccnn4CC(F)(F)F)C(=O)O)c23)ccc(OCCN2CCN(C)CC2)c1Cl",
    "GI50": "5.68 µM"
  },
  {
    "MOLECULE": "CC(=O)[CH-]C(=O)c1ccccc1.CC(=O)[CH-]C(=O)c1ccccc1.CC1(C)C2CCC1(C)C([O-])C2.CC1(C)C2CCC1(C)C([O-])C2.[Ti+4]",
    "GI50": "25.3 µM"
  },
  {
    "MOLECULE": "CC(=O)[CH-]C(=O)c1ccccc1.CC(=O)[CH-]C(=O)c1ccccc1.CC(C)CCCC(C)[C@H]1CCC2[C@@H]3CC=C4C[C@@H]([O-])CC[C@]4(C)C3CC[C@@]21C.CC[O-].[Ti+4] (some centres not stated)",
    "GI50": "> 100 µM"
  },
  {
    "MOLECULE": "O=c1ccc2nc(-c3ccccc3)nn(-c3ccccn3)c-2c1",
    "GI50": "14.1 µM"
  },
  {
    "MOLECULE": "COc1cc(C)c(Cl)cc1C1=NN(c2ccc(S(N)(=O)=O)cc2)C(/C=C/c2ccccc2)C1 (configuration not stated)",
    "GI50": "4.15 µM"
  },
  {
    "MOLECULE": "COc1cc2c3c(n(CCCN)c(=O)c2cc1OC)-c1cc2c(cc1/C3=C\\CCN)OCO2",
    "GI50": "3.74 µM"
  }
]

* * *

Test system: CCRF-CEM leukemia
Assay: NCI tumour cell line growth inhibition, 48 h; in the data active = GI50 below about 0.43 µM; inactive = the rest
Outcomes: active, inactive

[
  {
    "COMPOUND": "O=c1c2ccccc2n(C[C@H]2CO2)c2ccccc12",
    "ASSIGNED CATEGORY": "inactive"
  },
  {
    "COMPOUND": "O=C1C(=O)c2ccccc2C(O)=C1CC=C(Br)Br",
    "ASSIGNED CATEGORY": "inactive"
  },
  {
    "COMPOUND": "C#CCC(Cc1cnc2nc(N)nc(N)c2n1)c1ccc(C(=O)N[C@@H](CCC(=O)O)C(=O)O)cc1 (stereo partly specified)",
    "ASSIGNED CATEGORY": "active"
  },
  {
    "COMPOUND": "C/C(=N/Nc1nc2ccccc2n1C)c1ccccn1",
    "ASSIGNED CATEGORY": "active"
  },
  {
    "COMPOUND": "O=C1/C(=C/c2ccccc2)CN(C(=O)c2cccnc2)C/C1=C\\c1ccccc1",
    "ASSIGNED CATEGORY": "inactive"
  },
  {
    "COMPOUND": "COc1ccc(/C=C/C(=O)c2ccc(SC)cc2)cc1OC",
    "ASSIGNED CATEGORY": "inactive"
  }
]

* * *

Test system: HOP-62 NSCLC
Assay: NCI tumour cell line growth inhibition, 48 h; in the data active = GI50 below about 0.43 µM; inactive = the rest
Classes used: active, inactive

[
  {
    "TEST SMILES": "CCOC(=O)c1[nH]c(Br)c(-c2ccc(Br)cc2)c1Br",
    "ASSIGNED CATEGORY": "inactive"
  },
  {
    "TEST SMILES": "COc1ccc(/C=C\\c2cc(OC)c(OC)c(OC)c2)cc1OC(=O)c1cccc(Cn2cc(CCOC(=O)[C@H](N)Cc3cn(C)c4ccccc34)nn2)c1",
    "ASSIGNED CATEGORY": "active"
  },
  {
    "TEST SMILES": "O=c1nc2n(-c3ccc(Cl)cc3)c3ccc([N+](=O)[O-])cc3cc-2c(=O)[nH]1",
    "ASSIGNED CATEGORY": "inactive"
  },
  {
    "TEST SMILES": "O=C(CN1CCN(CCCOc2c(-c3ccccc3)oc3ccccc3c2=O)CC1)Nc1ccc(Cl)cc1C(=O)c1ccccc1Cl",
    "ASSIGNED CATEGORY": "inactive"
  },
  {
    "TEST SMILES": "COc1ccc(-n2nnnc2-c2c[nH]c3c(F)cc(F)cc23)cc1",
    "ASSIGNED CATEGORY": "inactive"
  },
  {
    "TEST SMILES": "CCn1c(CN2CCN(Cc3ccccc3)CC2)nc2cc(NC(=O)c3cccs3)ccc21",
    "ASSIGNED CATEGORY": "inactive"
  },
  {
    "TEST SMILES": "COc1ccccc1CCN=C1NC(=O)/C(=C/c2ccc3ncccc3c2)S1",
    "ASSIGNED CATEGORY": "inactive"
  },
  {
    "TEST SMILES": "COc1cc2c3c(n(CCCN)c(=O)c2cc1OC)-c1cc2c(cc1/C3=C\\CCN)OCO2",
    "ASSIGNED CATEGORY": "inactive"
  },
  {
    "TEST SMILES": "c1ccc2[nH]c(-c3ccc(NN=Nc4ccncc4)cc3)nc2c1",
    "ASSIGNED CATEGORY": "inactive"
  }
]

* * *

System: OVCAR-3 ovarian
Assay: NCI tumour cell line growth inhibition, 48 h; in the data active = GI50 below about 0.43 µM; inactive = the rest
Classes used: active, inactive

[
  {
    "COMPOUND": "O=C(CNc1ccc2c(c1)C(=O)c1ccccc1C2=O)Nc1ccc2c(c1)C(=O)c1ccccc1C2=O",
    "ASSIGNED CATEGORY": "inactive"
  },
  {
    "COMPOUND": "CCc1c(C#N)c(S[C@@H](C(N)=O)c2ccccc2)nc(N(C)C)c1C#N",
    "ASSIGNED CATEGORY": "inactive"
  },
  {
    "COMPOUND": "N[C@@H]1CCCC[C@H]1N.O=C([O-])C(=O)[O-].[Pt+4]",
    "ASSIGNED CATEGORY": "inactive"
  },
  {
    "COMPOUND": "CC[C@H](Nc1nc(NCc2cnc(C)cc2C)c2ncn(C(C)C)c2n1)[C@@H](C)O",
    "ASSIGNED CATEGORY": "active"
  },
  {
    "COMPOUND": "O=C(CN1CCN(CCCOc2c(-c3ccccc3)oc3ccccc3c2=O)CC1)Nc1ccc(Cl)cc1C(=O)c1ccccc1Cl",
    "ASSIGNED CATEGORY": "inactive"
  },
  {
    "COMPOUND": "O=c1c2ccccc2n(C[C@H]2CO2)c2ccccc12",
    "ASSIGNED CATEGORY": "inactive"
  },
  {
    "COMPOUND": "O=C(c1ccco1)c1nc2cc(Cl)ccc2[n+]([O-])c1C(F)(F)F",
    "ASSIGNED CATEGORY": "inactive"
  },
  {
    "COMPOUND": "CCn1c(CN2CCN(Cc3ccccc3)CC2)nc2cc(NC(=O)c3cccs3)ccc21",
    "ASSIGNED CATEGORY": "inactive"
  },
  {
    "COMPOUND": "O=C1CCCCCCCC/C=C\\CC(c2ccco2)O1 (stereo unspecified)",
    "ASSIGNED CATEGORY": "inactive"
  },
  {
    "COMPOUND": "CC(C)(C)c1nn(-c2ccccc2)c2c1C(=O)CSC(c1ccccc1Cl)N2 (stereo unspecified)",
    "ASSIGNED CATEGORY": "inactive"
  },
  {
    "COMPOUND": "O=c1ccn(C2OC(CO/N=C/c3ccc(O)c(O)c3O)C(O)C2O)c(=O)[nH]1 (stereo unspecified)",
    "ASSIGNED CATEGORY": "inactive"
  },
  {
    "COMPOUND": "C/C(=N/Nc1nc2ccccc2n1C)c1ccccn1",
    "ASSIGNED CATEGORY": "active"
  },
  {
    "COMPOUND": "COc1ccc(-n2nnnc2-c2c[nH]c3c(F)cc(F)cc23)cc1",
    "ASSIGNED CATEGORY": "inactive"
  },
  {
    "COMPOUND": "CCC(CO)Nc1nc(NCc2ccccc2O)c2ncn(C(C)C)c2n1 (stereo unspecified)",
    "ASSIGNED CATEGORY": "inactive"
  },
  {
    "COMPOUND": "Cc1cc2nc3c4cc(N)ccc4n(CCN(C)C)c3nc2cc1C",
    "ASSIGNED CATEGORY": "inactive"
  },
  {
    "COMPOUND": "COc1ccc(/C=C\\c2cc(OC)c(OC)c(OC)c2)cc1OC(=O)c1cccc(Cn2cc(CCOC(=O)[C@H](N)Cc3cn(C)c4ccccc34)nn2)c1",
    "ASSIGNED CATEGORY": "active"
  }
]
